Biological target: FGFR3 (UniProt P22607)
Sequence (P22607 whole entry, looked up): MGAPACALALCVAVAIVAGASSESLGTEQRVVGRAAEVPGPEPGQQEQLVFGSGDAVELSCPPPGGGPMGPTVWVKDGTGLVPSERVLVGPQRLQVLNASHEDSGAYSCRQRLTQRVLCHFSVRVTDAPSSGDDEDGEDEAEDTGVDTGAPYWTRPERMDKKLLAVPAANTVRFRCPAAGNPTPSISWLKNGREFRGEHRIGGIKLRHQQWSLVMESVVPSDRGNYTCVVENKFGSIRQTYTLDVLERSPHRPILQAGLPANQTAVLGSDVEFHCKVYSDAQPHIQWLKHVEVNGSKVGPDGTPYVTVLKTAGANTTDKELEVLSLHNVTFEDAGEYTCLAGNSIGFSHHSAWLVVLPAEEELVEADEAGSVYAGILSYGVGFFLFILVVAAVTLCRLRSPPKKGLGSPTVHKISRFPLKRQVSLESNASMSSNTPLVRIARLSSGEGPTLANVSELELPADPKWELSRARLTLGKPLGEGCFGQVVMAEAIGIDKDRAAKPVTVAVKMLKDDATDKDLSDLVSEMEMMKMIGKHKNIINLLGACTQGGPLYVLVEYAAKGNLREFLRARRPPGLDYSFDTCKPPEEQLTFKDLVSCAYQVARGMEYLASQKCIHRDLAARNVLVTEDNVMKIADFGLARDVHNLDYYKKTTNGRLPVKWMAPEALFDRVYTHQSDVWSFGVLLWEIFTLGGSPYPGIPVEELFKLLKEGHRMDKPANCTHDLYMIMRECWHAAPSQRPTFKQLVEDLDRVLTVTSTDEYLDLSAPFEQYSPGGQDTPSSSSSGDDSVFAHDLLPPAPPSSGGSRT
Test: phosphorylation enrichment, bacterial display (enrichment ratio); higher = better substrate or ligand; peptides without Tyr show the background;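 also: 11-residue human phosphosite peptides and single-mutation variants displayed on the E. coli surface, counted by deep sequencing, each peptide's frequency after selection divided by its frequency in the unselected input library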;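 also: frequency after pTyr selection over input frequency; kinase dosed for 20-30% of maximal phosphorylation in three min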
metric name: phosphorylation enrichment
One number for each entry.

> print(dat)
                    sequence.string          assayed.system  measurement
1  KGYCGYSYDDI [TMEM230_Y110_R108C]  FGFR3 (UniProt P22607)        0.823
2    IGEGTYGVLFK [CDK2_Y15_V18L_YF]  FGFR3 (UniProt P22607)        0.606
3        MGRVNYGAFIN [GLB1_Y485_YF]  FGFR3 (UniProt P22607)        0.496

// for each sequence in input: emit phosphorylation enrichment
1. AIKSFYAALID [RYR1_Y2426_M2423K]
2. KQELVYTNKKL [OPTN_Y356]
3. NPIGLYSAEIL [LDB3_Y202_T206I]
4. ELCSEYRKSRK [SPINK5_Y440]

Solution:
[0.628, 0.474, 0.562, 0.394]

====

Test system: AncSZ
Assay: phosphorylation enrichment, bacterial display (enrichment ratio); higher = better substrate or ligand; peptides without Tyr show the background
Given measured phosphorylation enrichment, output t if it is greater than or equal to 0.9 and f if not.

A selection of reference data follows.
> print(dat)
                       sequence.string  qualitative.label
 1  EFHRLYEEFTR [PIK3R1_Y467_D464H_YF]                  t
 2         LAARFYNWVSF [FLT4_Y1231_YF]                  t
 3                         ACDALYPPGPP                  f
 4   ENGPFYASFPP [GDAP2_Y488_T489A_YF]                  f
 5     MVSLFYGTAIF [OR10C1_Y251_L255I]                  t
 6              IMITDYLLLFR [INSR_Y87]                  t
 7             SLFNGYVYSGV [NEIL3_Y71]                  t
 8            IYGASYVPFAA [RBM47_Y541]                  f
 9     LEFAKYGSLRG [RET_Y809_V804L_YF]                  f
10         HHIDFYKKTTN [FGFR1_Y654_YF]                  f

Problem: Does the sequence TISPYYRQSLF [CRYAA_Y48] have recorded phosphorylation enrichment that is 0.9 or more?
Solution: f

Problem: Does the sequence TAGFIYEKWEI [TEC_Y360_S359I] have recorded phosphorylation enrichment that is 0.9 or more?
Solution: t

Problem: Does the sequence AIMSFYAALID [RYR1_Y2426] have recorded phosphorylation enrichment that is 0.9 or more?
Solution: t

Problem: Does the sequence SRGSSYNSIPK [FLNC_Y2625_S2626N] have recorded phosphorylation enrichment that is 0.9 or more?
Solution: f

====

Test system: c-Src
Assay: phosphorylation enrichment, bacterial display (enrichment ratio); higher = better substrate or ligand; peptides without Tyr show the background
Hi there, I'd appreciate the recorded phosphorylation enrichment for every entry that follows.
Give bare numbers.

> print(dat)
                    sequence.string                 metric.name  measurement
1  TLARLYHRDST [LRIG1_Y1029_P1031R]  phosphorylation enrichment        0.449
2    KLASTYREAAT [DEAF1_Y483_H479L]  phosphorylation enrichment        0.273
3    YRIGPYQPSVP [MATR3_Y784_N787S]  phosphorylation enrichment        0.449
4      QTEAQYRFIFM [PTPN11_Y511_YF]  phosphorylation enrichment        0.702
5      DEDEEYEFMNR [ERBB3_Y1197_YF]  phosphorylation enrichment        0.456

// for each sequence in input: emit phosphorylation enrichment
1. DVQNAYDSNHC [ZFYVE16_Y36]
2. DLDLTSIFPNI [PTEN_Y27_Y27S_YF]

Solution:
1: 0.495; 2: 0.358
